Molecular target: GnRH receptors (bovine pituitary anterior lobe membrane fraction) (Bos taurus, UniProt P32236)
Construct: A bovine pituitary anterior lobe membrane fraction containing GnRH receptors was prepared; from tissue; host or cells: bovine pituitary anterior lobe, membrane fraction
Sequence (P32236 whole entry): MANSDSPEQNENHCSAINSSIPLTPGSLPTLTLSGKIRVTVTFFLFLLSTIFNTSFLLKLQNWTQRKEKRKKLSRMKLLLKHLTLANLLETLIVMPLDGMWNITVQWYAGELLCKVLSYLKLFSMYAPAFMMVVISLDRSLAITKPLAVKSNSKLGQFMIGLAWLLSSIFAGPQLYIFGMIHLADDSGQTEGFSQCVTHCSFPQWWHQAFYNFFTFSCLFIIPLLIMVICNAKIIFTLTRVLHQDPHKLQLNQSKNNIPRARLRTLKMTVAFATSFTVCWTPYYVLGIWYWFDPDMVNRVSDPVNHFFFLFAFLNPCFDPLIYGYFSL
Experiment: 125I-leuprolerin GnRH receptor binding inhibition test, bovine pituitary anterior lobe membrane fraction
Settings: 4° C., 90 minutes, read-out: Binding inhibitory activity (IC50 μM) Bovine
Where a name gives a salt, the structure may show the parent alone.
Flag rule - IC50 less than 7 µM flags yes; the remaining entries get no.

IC50 under 7 µM? Item: O=C1c2ccccc2CCC12CCCCN2CCCC1(c2ccccc2)COCc2ccccc21 (centres unmarked) [Example I-49, hydrochloride] no

Also need COc1ccc2c(c1)CCC1(CCCCN1CCCC1(c3ccccc3)COCc3ccccc31)C2 (centres unmarked) [Example I-36, hydrochloride] , thanks. no

Now this one: COc1cc2c(cc1OC)CC1(CCCCN1CCCC1(c3ccccc3)COCc3ccccc31)CC2 (centres unmarked) [Example I-37, hydrochloride] yes

Again, but for COc1cc2c(cc1OC)CC1(CCCCN1CCCC1(c3ccc(F)cc3)COCc3ccccc31)CC2 (centres unmarked) [Example I-50, hydrochloride] no

Likewise for COC(=O)c1cccc(CNCCCC2(c3ccccc3)COCc3ccccc32)c1 (centres unmarked) [Example I-45, hydrochloride] ? yes

Would you mind doing c1ccc(C2(CCCNC3CCCc4ccccc43)COCc3ccccc32)cc1 (centres unmarked) [Example I-51, hydrochloride] as well? no

* * *

Biological target: human GnRH receptors (Homo sapiens)
Construct: expressed in transfected cells; host or cells: CHO (Chinese hamster ovary) cells, membrane fraction
Sequence (P30968 whole entry): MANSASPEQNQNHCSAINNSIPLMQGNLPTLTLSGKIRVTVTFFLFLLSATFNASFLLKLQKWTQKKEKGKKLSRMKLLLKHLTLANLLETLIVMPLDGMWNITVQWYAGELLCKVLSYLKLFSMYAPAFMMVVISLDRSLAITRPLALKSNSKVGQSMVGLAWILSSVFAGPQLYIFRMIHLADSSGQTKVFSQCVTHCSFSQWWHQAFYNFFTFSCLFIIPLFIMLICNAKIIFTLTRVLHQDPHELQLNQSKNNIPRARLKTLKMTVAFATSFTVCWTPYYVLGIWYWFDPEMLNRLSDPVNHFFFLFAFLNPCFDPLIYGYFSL
Assay: 125I-leuprolerin GnRH receptor binding inhibition test, human (CHO cell membrane fraction)
Details: human GnRH receptors expressed in CHO cells, 25° C., 60 minutes, read-out: Binding inhibitory activity (IC50 μM) Human
Structures can show the parent of a compound that is named as a salt.
endpointName: IC50 (µM)
API: value field is a number in µM; no unit string.

Need IC50 of COC(=O)c1cccc(CNCCCC2(c3ccccc3)COCc3ccccc32)c1 (centres unmarked) [Example I-45, hydrochloride] , thanks. 6

Next: COc1cc2c(cc1OC)CC1(CCCCN1CCCCC1(c3ccccc3)COCc3ccccc31)CC2 (centres unmarked) [Example I-52, hydrochloride] 6

* * *

Biological target: GnRH receptors (rat pituitary anterior lobe membrane fraction) (Rattus norvegicus)
Construct: the anterior lobe of the pituitary gland was isolated and washed with ice-cooled homogenate buffer; from tissue; host or cells: anterior lobe of the pituitary gland, male Wistar rats (8 weeks old), membrane fraction
Sequence (P30969 whole entry): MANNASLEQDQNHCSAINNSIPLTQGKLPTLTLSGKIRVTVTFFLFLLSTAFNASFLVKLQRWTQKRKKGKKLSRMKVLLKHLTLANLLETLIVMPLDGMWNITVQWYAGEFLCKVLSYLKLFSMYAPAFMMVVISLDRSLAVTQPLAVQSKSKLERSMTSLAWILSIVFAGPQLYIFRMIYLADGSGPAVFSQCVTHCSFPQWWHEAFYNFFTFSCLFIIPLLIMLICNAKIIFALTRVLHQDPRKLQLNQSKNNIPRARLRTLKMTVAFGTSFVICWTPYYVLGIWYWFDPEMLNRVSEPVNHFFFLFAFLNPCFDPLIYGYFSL
Test: 125I-leuprolerin GnRH receptor binding inhibition test, rat pituitary anterior lobe membrane fraction
Settings: 4° C., 90 minutes, read-out: Binding inhibitory activity (IC50 μM) Rat
Protocol: Ten (10) μl of 3×10^4 M aqueous leuprolerin solution and 10 μl of 0.01 mg/ml lactoperoxidase were taken in a tube and 10 μl of Na^125 I solution (37 MBq) was added. After stirring, 10 μl of 0.001% H2 O2 was added and the reaction was conducted at room temperature for 20 minutes. […] After filtration, the radioactivity of ^125 I-leuprolerin remaining on the filter was measured with a γ-counter. […]
Counter-ions that a name gives are not always drawn.
endpointName: IC50 (µM)
State the answer as a number, implicitly in µM.

Any idea what IC50 was measured for O=C1c2ccccc2CCC12CCCCN2CCCC1(c2ccccc2)COCc2ccccc21 (stereo not shown) [Example I-49, hydrochloride] ? 0.5

Let us now turn to COc1cc2c(cc1OC)CC1(CCCCN1CCCCC1(c3ccccc3)COCc3ccccc31)CC2 (stereo not shown) [Example I-52, hydrochloride] 0.03

Next entry: c1ccc(C2(CCCNC3CCCc4ccccc43)COCc3ccccc32)cc1 (stereo not shown) [Example I-51, hydrochloride] 0.5

Follow-up item: COc1ccc2c(c1)CCC1(CCCCN1CCCC1(c3ccccc3)COCc3ccccc31)C2 (stereo not shown) [Example I-36, hydrochloride] 0.6
